# Test system: NCI-H460
# assay_name: NCI tumour cell line growth inhibition, 48 h
Activity calls are given as the source filed them. No stated cut-off is given here; in the data, active = GI50 up to about 1.1 µM and inactive = higher.
In this exercise, the only acceptable responses are True (active), False (inactive)

Completed entries (count: 4):
>  <compound>
N#CC(C#N)=C(N)/C(C#N)=C/c1ccc2ccccc2n1

>  <assayed_system>
NCI-H460

>  <discrete_label>
False

$$$$
>  <compound>
N#CCCN(C(=O)Nc1ccccc1)[C@H]1CCCC[C@@H]1N(C(=O)Nc1ccccc1)c1ccccc1

>  <assayed_system>
NCI-H460

>  <discrete_label>
False

$$$$
>  <compound>
COc1ccccc1-c1cc(=O)c2ccc(OC)c(OC)c2o1

>  <assayed_system>
NCI-H460

>  <discrete_label>
False

$$$$
>  <compound>
COC(=O)C(=O)C(C(C)=O)C(=O)NCc1ccc(OC)c(OC)c1 (stereo unspecified)

>  <assayed_system>
NCI-H460

>  <discrete_label>
False

$$$$

Ask | Hello, I am checking results. What call was entered for `N#Cc1cc([N+](=O)[O-])ccc1NC(=O)C(F)(F)F` ?
Reply | False

Ask | Hello, I am checking results. What call was entered for `CCSc1nc(N/N=C/c2cccs2)c2cnn(CO)c2n1` ?
Reply | False

Ask | Hello, I am checking results. What call was entered for CC(C)(C)C1CC[C@H]2c3c([nH]c4ccc(Br)cc34)[C@H]3C(=O)N(c4ccccc4)C(=O)[C@H]3[C@H]2C1 (stereo partly specified) ?
Reply | False

Ask | Hello, I am checking results. What call was entered for `C/C(=C\c1csc(C)n1)[C@@H]1C[C@@H]2O[C@@H]2CCC[C@H](C)[C@H](O)[C@@H](C)C(=O)C(C)(C)[C@@H](O)CC(=O)O1.C/C(=C\c1csc(C)n1)[C@@H]1C[C@@H]2O[C@]2(C)CCC[C@H](C)[C@H](O)[C@@H](C)C(=O)C(C)(C)[C@@H](O)CC(=O)O1` ?
Reply | True

====

# Tested on: CAKI-1
# assay_name: NCI tumour cell line growth inhibition, 48 h
The source made the active and inactive calls. Cut-off read from the data, not from the text of the source: active = GI50 up to about 1.1 µM and inactive = higher.
GI50 overview

The examples below pair each entry with its known result.
>  <compound>
Cc1cc(C)n(-c2c(O)ccc(O)c2-n2nc(C)cc2C)n1

>  <GI50>
> 100 µM (inactive)

$$$$
>  <compound>
COC(=O)c1cc2c(cc1CC1Cc3cc4c(cc3C1=O)CCC4)CCC2 (stereo unspecified)

>  <GI50>
> 100 µM (inactive)

$$$$
>  <compound>
CC(C)(C)C1CCC2c3c([nH]c4ccccc34)C3C(=O)N(c4cccc([N+](=O)[O-])c4)C(=O)C3C2C1 (stereo unspecified)

>  <GI50>
19.6 µM (inactive)

$$$$
>  <compound>
COC1(CCO)CC=CCC1(CCO)OC (stereo unspecified)

>  <GI50>
> 100 µM (inactive)

$$$$
>  <compound>
CC12C=CC(C)(C3C(=O)C4C(C(=O)C31)C1(C)C=CC4(C)[S+]1[O-])[S+]2[O-] (stereo unspecified)

>  <GI50>
> 100 µM (inactive)

$$$$

Moving on to the next compound.
Ask | Any idea what GI50 was measured for OC1[C@H](O)CN(OCc2ccccc2)C[C@@H]1O (stereo partly specified) ?
Reply | > 100 µM (inactive)

====

# Tested on: SK-OV-3
# assay_name: NCI tumour cell line growth inhibition, 48 h
Calls of active or inactive are those of the source. Cut-off read from the data, not from the text of the source: active = GI50 up to about 1.1 µM and inactive = higher.
metric: GI50

The examples below pair each entry with its known result.
>  <molecule>
CN1C(=O)c2ccccc2C(O)(c2ccccc2)C1(O)c1ccccc1 (stereo unspecified)

>  <metric>
GI50

>  <endpoint_value>
52.4 µM (inactive)

$$$$
>  <molecule>
COC1=CC(=O)c2c(O)c3c(c(O)c2C1=O)CC(C)(O)OC3 (stereo unspecified)

>  <metric>
GI50

>  <endpoint_value>
18.2 µM (inactive)

$$$$
>  <molecule>
CCCCCCCCCCCCOP(N)(=O)OCCCCCCCCCCCC

>  <metric>
GI50

>  <endpoint_value>
> 100 µM (inactive)

$$$$

Ask | Any idea what GI50 was measured for COc1nc2c(nc(N)n2C2OCC(O)C(O)C2O)c(=O)n1C (stereo unspecified) ?
Reply | > 100 µM (inactive)

Ask | Any idea what GI50 was measured for `COc1cc(O)cc(/C=C/c2ccc(O)cc2)c1` ?
Reply | > 100 µM (inactive)

Ask | Any idea what GI50 was measured for `O[C@@]1(c2cccs2)c2cccc(Cl)c2[C@](O)(c2cccs2)c2cccc(Cl)c21` ?
Reply | 22.6 µM (inactive)

====

# Tested on: 786-0
# assay_name: NCI tumour cell line growth inhibition, 48 h
Calls of active or inactive are those of the source. Cut-off read from the data, not from the text of the source: active = GI50 up to about 1.1 µM and inactive = higher.
metric: GI50

>  <molecule>
CC(C)(C)c1cc(OCc2nnc(S)n2N)c(Cl)cc1OCc1nnc(S)n1N

>  <GI50>
59.6 µM (inactive)

$$$$
>  <molecule>
N#Cc1ccc(-c2nc(C#N)c(N)o2)cc1

>  <GI50>
> 10 µM (inactive)

$$$$
>  <molecule>
COc1cc(O)cc(/C=C/c2ccc(O)cc2)c1

>  <GI50>
29.6 µM (inactive)

$$$$
>  <molecule>
CC(=O)C1=C(C)N2C(=NC3=C(CCc4ccccc43)C2c2ccc(Cl)cc2)S1 (stereo not drawn)

>  <GI50>
> 52.4 µM (inactive)

$$$$
>  <molecule>
CCn1cnc2c(NC(C)=O)ncnc21

>  <GI50>
> 100 µM (inactive)

$$$$
>  <molecule>
OC1(c2ccccc2)CCN(Cc2c[nH]c3ccccc23)CC1

>  <GI50>
44 µM (inactive)

$$$$
>  <molecule>
O=C1c2c(O)cc(O)cc2C(C2OC(CO)C(O)C(O)C2O)c2cc(CO)cc(O)c21 (stereo not drawn)

>  <GI50>
> 100 µM (inactive)

$$$$
>  <molecule>
Cc1cc(Nc2ccc(NS(C)(=O)=O)cc2)c2c(ccc3[nH]ccc32)n1

>  <GI50>
20.4 µM (inactive)

$$$$
>  <molecule>
CCC(C(=O)c1cccs1)C(O)(C(F)(F)F)C(F)(F)F (stereo not drawn)

>  <GI50>
> 100 µM (inactive)

$$$$
>  <molecule>
CCc1n[nH]c(=O)n1-c1ccc2ccccc2c1

>  <GI50>
> 100 µM (inactive)

$$$$

Ask | Any idea what GI50 was measured for CCOc1ccc(/N=N/C2C(=O)N(C(=O)CC(=O)Nc3ccc(Cl)cc3)N=C2C)cc1 (stereo not drawn) ?
Reply | > 100 µM (inactive)

Ask | Any idea what GI50 was measured for `C=C(CN(C)C)C(=O)c1ccccc1[N+](=O)[O-]` ?
Reply | 12.2 µM (inactive)

Ask | Any idea what GI50 was measured for `Cc1cn(CC2(CO)CCC2)c(=O)[nH]c1=O` ?
Reply | > 100 µM (inactive)

====

# Test system: COLO 205
# assay_name: NCI tumour cell line growth inhibition, 48 h
Active and inactive are the calls of the source. No stated cut-off is given here; in the data, active = GI50 up to about 1.1 µM and inactive = higher.
GI50 overview

The examples below pair each entry with its known result.
>  <compound>
Cc1nc2ccc(Cl)cc2c2c1CCO2

>  <GI50>
83.9 µM (inactive)

$$$$
>  <compound>
CSc1ncc2c(n1)sc1c(=O)n(-c3ccccc3)cnc12

>  <GI50>
> 100 µM (inactive)

$$$$
>  <compound>
NC1=NN(c2ccccc2)C(=O)C1C(=O)C(=O)Nc1nccs1 (stereo not given)

>  <GI50>
> 100 µM (inactive)

$$$$

Ask | Any idea what GI50 was measured for `C1=Cc2ccccc2C1.C=C(C)c1ccccc1.[N-]=[N+]=Nc1ccccc1` ?
Reply | > 100 µM (inactive)

====

GI50 overview
# Tested on: M19-MEL
# assay_name: NCI tumour cell line growth inhibition, 48 h
The source made the active and inactive calls. Rule as the data show it: active = GI50 up to about 1.1 µM and inactive = higher.

The examples below pair each entry with its known result.
>  <molecule>
COC(=O)c1cc(C(=O)OC)c(CC(=O)C(=O)NC2C3CC4CC(C3)CC2C4)nc1CC(=O)C(=O)NC1C2CC3CC(C2)CC1C3 (centres undefined)

>  <endpoint_value>
> 100 µM (inactive)

$$$$
>  <molecule>
Cc1cc(N(CCC#N)CCC#N)ccc1/C=C1/CN(N2C(=O)/C(=C/c3ccc(N(CCC#N)CCC#N)cc3C)N=C2c2ccccc2)C(c2ccccc2)=N1

>  <endpoint_value>
> 100 µM (inactive)

$$$$
>  <molecule>
C=C(C)C(=O)O[C@H]1CC2=C[C@@H](C[C@@]3(C)O[C@@H]3[C@H]3OC(=O)C(=C)[C@@H]31)OC2=O

>  <endpoint_value>
2.49 µM (inactive)

$$$$
>  <molecule>
CC1(C)C(=O)C(C)(C)C1=S

>  <endpoint_value>
> 100 µM (inactive)

$$$$
>  <molecule>
CC1=NC=C(O)c2ccccc2O1

>  <endpoint_value>
> 100 µM (inactive)

$$$$

Ask | Any idea what GI50 was measured for Clc1cccc(C2SCc3nc4ccccc4n32)c1 (centres undefined) ?
Reply | 19.4 µM (inactive)

Ask | Any idea what GI50 was measured for COC1(OC)CC2CCCCC2=C(C)N1S(=O)(=O)c1ccccc1 (centres undefined) ?
Reply | > 100 µM (inactive)

Ask | Any idea what GI50 was measured for `CCOC(=O)C1=C(Nc2ccc(Br)cc2)OCC1=O` ?
Reply | > 100 µM (inactive)

Ask | Any idea what GI50 was measured for `CC1(C)O[C@@H](C[C@]2(C#N)C[C@H](CCl)OC(C)(C)O2)C[C@@H](C#N)O1` ?
Reply | > 100 µM (inactive)

Ask | Any idea what GI50 was measured for O=C(Nc1cccc(O)c1)C(=O)C(C(=O)c1ccccc1F)C1OC(=O)c2ccccc21 (centres undefined) ?
Reply | 18.1 µM (inactive)

Ask | Any idea what GI50 was measured for CN/N=C(\C(=O)Nc1ccc(C(F)(F)F)cc1[N+](=O)[O-])C(c1cnc2ccc([N+](=O)[O-])cc2n1)[N+](=O)[O-] (centres undefined) ?
Reply | 10.9 µM (inactive)

Ask | Any idea what GI50 was measured for `O=S1(=O)OCCOS(=O)(=O)C1Cc1ccccc1` ?
Reply | 39.5 µM (inactive)

Ask | Any idea what GI50 was measured for O=C1c2ccccc2N2OC3(N4CCOCC4)CCCC3C12c1ccccc1 (centres undefined) ?
Reply | > 100 µM (inactive)

Ask | Any idea what GI50 was measured for CC(C)(C)C1CC[C@H]2c3c([nH]c4ccc(Br)cc34)[C@H]3C(=O)N(c4ccccc4)C(=O)[C@H]3[C@H]2C1 (some centres undefined) ?
Reply | 19.8 µM (inactive)

Ask | Any idea what GI50 was measured for `CCOc1ccccc1N1C(=O)C(=O)C(c2nc3ccccc3s2)C(=O)C1=O` ?
Reply | 69.5 µM (inactive)

Ask | Any idea what GI50 was measured for O=C(Nc1ccc(Br)cc1)C(=O)C(C(=O)c1ccc(Cl)c(Cl)c1)C1OC(=O)c2ccccc21 (centres undefined) ?
Reply | 15 µM (inactive)

Ask | Any idea what GI50 was measured for COC(=O)C(=O)C(C(C)=O)C(=O)NCc1ccc(OC)c(OC)c1 (centres undefined) ?
Reply | > 100 µM (inactive)
